Provenance of the data: ChEMBL document CHEMBL3272153

Assign pKi to each entry below.
# Experiment Summary: Competitive inhibition of Escherichia coli thymidylate synthetase using 5-[3H]-dUMP as substrate after 7 mins by scintillation counting analysis
Answers are plain numbers, as −log10 of the molar value.

O=c1[nH]c(=O)n([C@H]2C[C@H](O)[C@@H](COP(=O)(O)O)O2)cc1CO: 5.40
COCc1cn([C@H]2C[C@H](O)[C@@H](COP(=O)(O)O)O2)c(=O)[nH]c1=O: 4.38
C=CCc1cn([C@H]2C[C@H](O)[C@@H](COP(=O)(O)O)O2)c(=O)[nH]c1=O: 3.87
O=c1[nH]c(=O)n([C@H]2C[C@H](O)[C@@H](COP(=O)(O)O)O2)cc1CC1CO1 (stereo partly drawn): 4.60
[N-]=[N+]=NCc1cn([C@H]2C[C@H](O)[C@@H](COP(=O)(O)O)O2)c(=O)[nH]c1=O: 4.74

Please supply pKi for each of the following items, keeping them in order.
1. O=c1[nH]c(=O)n([C@H]2C[C@H](O)[C@@H](COP(=O)(O)O)O2)cc1COCc1ccccc1
2. CC(=O)c1cn([C@H]2C[C@H](O)[C@@H](COP(=O)(O)O)O2)c(=O)[nH]c1=O

Solution:
[4.60, 4.19]

Problem: Requested read-out: pKi. Entry: O=Cc1cn([C@H]2C[C@H](O)[C@@H](COP(=O)(O)O)O2)c(=O)[nH]c1=O
Solution: 7.00
